Numbers sourced from patent US20170145113A1.

Target: T1, His-tagged human HtrA1 protease domain (human, UniProt Q92743 161-367)
T1 construct: His-tagged protease domain; also called huHtrA1-PD-His; huHtrA1-PD
T1 sequence (Q92743 other isoform, or with tags, fused parts or gaps limits assumed): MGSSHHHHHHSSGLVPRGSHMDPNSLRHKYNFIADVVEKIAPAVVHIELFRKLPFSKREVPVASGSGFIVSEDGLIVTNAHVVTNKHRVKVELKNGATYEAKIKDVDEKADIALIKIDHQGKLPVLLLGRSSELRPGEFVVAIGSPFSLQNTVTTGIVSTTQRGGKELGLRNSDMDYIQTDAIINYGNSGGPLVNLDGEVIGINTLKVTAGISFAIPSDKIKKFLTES
Experiment: SPR (BIACORE T200), huHtrA1-PD-His captured by anti-His, Fab injected
Experimental: To determine the binding affinity of selected Fab variants for HtrA1, SPR measurement with a BIACORE™ T200 instrument was performed. […] The sensorgram was recorded and subject to reference and buffer subtraction before evaluating by BIACORE® T200 Evaluation Software (version 2.0). Association rates (kₒₙ) and dissociation rates (koff) were calculated using a simple one-to-one Langmuir binding model. The equilibrium dissociation constant (KD) was calculated as the ratio of koff/kₒₙ.
Provide the reported Kd of each item.
Respond with the bare value in nM.

// query Kd value for entry h15H6.v2 variant HC6 (HC-E53A) Fab (Fab, V domains shown, Fab-Flag tag fusion from 293T cells) VH: EVQLVQSGAEVKKPGASVKVSCKASGYTFTDSEMHWVRQAPGQGLEWIGGVDPATDGAAYNQKFKGRATITRDTSTSTAYLELSSLRSEDTAVYYCTRGYDYDYALDYWGQGTLVTVSS VL: DIQMTQSPSSLSASVGDRVTITCRASSSVNFIHWYQQKPGKAPKPLISATSNLASGVPSRFSGSGSGTDFTLTISSLQPEDFATYYCQQWSSNPWTFGQGTKVEIK 2.58

// query Kd value for entry h15H6.v2 variant LC9 (LC-S93I) Fab (Fab, V domains shown, Fab-Flag tag fusion from 293T cells) VH: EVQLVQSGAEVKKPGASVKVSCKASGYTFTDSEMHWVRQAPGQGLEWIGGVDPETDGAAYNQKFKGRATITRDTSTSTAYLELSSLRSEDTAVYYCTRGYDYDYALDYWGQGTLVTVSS VL: DIQMTQSPSSLSASVGDRVTITCRASSSVNFIHWYQQKPGKAPKPLISATSNLASGVPSRFSGSGSGTDFTLTISSLQPEDFATYYCQQWSINPWTFGQGTKVEIK 2.15

// query Kd value for entry h15H6.v2 variant LC6 (LC-Q89H) Fab (Fab, V domains shown, Fab-Flag tag fusion from 293T cells) VH: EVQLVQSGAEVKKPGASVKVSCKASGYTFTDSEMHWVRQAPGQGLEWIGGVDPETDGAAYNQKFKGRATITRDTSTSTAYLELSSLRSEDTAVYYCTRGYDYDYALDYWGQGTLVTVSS VL: DIQMTQSPSSLSASVGDRVTITCRASSSVNFIHWYQQKPGKAPKPLISATSNLASGVPSRFSGSGSGTDFTLTISSLQPEDFATYYCHQWSSNPWTFGQGTKVEIK 0.642

// query Kd value for entry h15H6.v2 variant HC3 (HC-T28K) Fab (Fab, V domains shown, Fab-Flag tag fusion from 293T cells) VH: EVQLVQSGAEVKKPGASVKVSCKASGYKFTDSEMHWVRQAPGQGLEWIGGVDPETDGAAYNQKFKGRATITRDTSTSTAYLELSSLRSEDTAVYYCTRGYDYDYALDYWGQGTLVTVSS VL: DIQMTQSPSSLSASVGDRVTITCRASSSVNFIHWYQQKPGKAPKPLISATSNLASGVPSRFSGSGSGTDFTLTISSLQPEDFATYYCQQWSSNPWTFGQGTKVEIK 0.374

// query Kd value for entry h15H6.v2 variant LC1 (LC-S29R) Fab (Fab, V domains shown, Fab-Flag tag fusion from 293T cells) VH: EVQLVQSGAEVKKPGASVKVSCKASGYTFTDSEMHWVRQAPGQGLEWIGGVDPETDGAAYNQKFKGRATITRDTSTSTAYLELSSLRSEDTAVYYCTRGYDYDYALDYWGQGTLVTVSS VL: DIQMTQSPSSLSASVGDRVTITCRASSRVNFIHWYQQKPGKAPKPLISATSNLASGVPSRFSGSGSGTDFTLTISSLQPEDFATYYCQQWSSNPWTFGQGTKVEIK 1.55

// query Kd value for entry h15H6.v2 variant LC7 (LC-S92Y) Fab (Fab, V domains shown, Fab-Flag tag fusion from 293T cells) VH: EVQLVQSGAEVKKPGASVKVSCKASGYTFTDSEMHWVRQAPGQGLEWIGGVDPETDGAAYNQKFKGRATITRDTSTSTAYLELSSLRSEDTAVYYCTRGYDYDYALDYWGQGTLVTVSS VL: DIQMTQSPSSLSASVGDRVTITCRASSSVNFIHWYQQKPGKAPKPLISATSNLASGVPSRFSGSGSGTDFTLTISSLQPEDFATYYCQQWYSNPWTFGQGTKVEIK 0.335

// query Kd value for entry h15H6.v2 variant LC2 (LC-N31H) Fab (Fab, V domains shown, Fab-Flag tag fusion from 293T cells) VH: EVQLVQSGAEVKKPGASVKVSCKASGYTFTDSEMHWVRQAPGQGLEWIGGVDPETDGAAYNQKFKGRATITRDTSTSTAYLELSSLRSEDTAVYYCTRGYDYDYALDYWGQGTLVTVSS VL: DIQMTQSPSSLSASVGDRVTITCRASSSVHFIHWYQQKPGKAPKPLISATSNLASGVPSRFSGSGSGTDFTLTISSLQPEDFATYYCQQWSSNPWTFGQGTKVEIK 0.836
